System: Plasmodium berghei
Assay: Screen against P. berghei liver stage (PbLuc), transformed with Luciferase, at 2uM
Type: functional, HepG2
Conditions: tested at 2 uM
Screen size: about 68,000 compounds; about 2,700 (4%) showed an effect of 50% or more. The full list was thinned out, with strong results kept by preference.
experimental readout: INHIBITION (%)

* CN(C)C(=O)C1CCC2(CCNCC2)C1 (centres undefined) | 26.55
* COc1ccccc1CCN1CCCC(CN(C)Cc2ccc(C)o2)C1 (centres undefined) | -4.64
* CCC1=N[C@@]2(CC[C@@H]3CN(CC4CC4)C[C@@H]32)C(=O)N1 | -26.61
* Cc1cc(C(=O)N2CCN(c3nc4c(C)cccc4s3)CC2)no1 | 7.72
* Cn1ncnc1NCc1ccccc1Cl | 6.75
* CC1(C)O[C@@](C)([C@H]2CC3(CCN(c4cnccn4)CC3)CO2)CC[C@@H]1O | 4.19
* CCN1CCCC(C)(C(=O)NCc2nncn2CCc2ccccc2)C1 (centres undefined) | -4.93
* CCN1CC(C(=O)NC(C)(C)C(=O)OC)CC1=O (centres undefined) | -59.42
* CCN(CC)S(=O)(=O)CC(=O)N1CCc2ccc(C)cc21 | -13.17
* CCOCC1CN(Cc2ccoc2)Cc2nn(C)cc21 (centres undefined) | -55.93
* CN(C)c1cc(CNC(=O)c2cnccn2)ccn1 | -14.75
* Cc1cc(C(=O)N2CCN(c3nc4c(C(C)C)cccc4s3)CC2)no1 | 23.65
* CC(C)C(=O)N1CCC2(CC1)NC(=O)[C@H]1CN(Cc3cccnc3)C[C@H]12 | 37.54
* Cc1ccc(-c2cc(CN3CCc4cnc(C)nc4C3)on2)cc1 | -34.82
* Cc1ncc(S(C)(=O)=O)c(N(C)CCCc2cnn(C)c2)n1 | 13.95
* COC(=O)c1c(C(F)(F)F)cnc(OC)c1Cl | 53.54
* CC(C)NC(=O)N1CCCC2(CCCCN2)C1 (centres undefined) | 21.75
* COc1ncc(C(F)(F)F)c(C(=O)O)c1Cl | 30.38
* COc1nccc(C(F)(F)F)c1C(=O)O | -16.59

###

System: Plasmodium berghei
Assay: Screen against P. berghei liver stage (PbLuc), transformed with Luciferase, at 2uM
Assay type: functional, HepG2
Conditions: tested at 2 uM
Out of some 68,000 compounds screened, about 2,700 (4%) showed an effect of 50% or more. Shown is part of a subset that was picked to be rich in strong results.
experimental readout: INHIBITION (%)

• Cc1cccc2cc(CO)c(N3Cc4cnc(C(C)(C)C)nc4C3)nc12 = 30.89
• COCCN1CCN(Cc2cnc(C)nc2)CC1 = 17.8
• COC[C@@]12CCO[C@@H]1CCN(C(=O)Cc1ccc(C)cc1)C2 = 11.37
• O=C(c1c[nH]cn1)N1CCCn2c(CN3CCCCC3)nnc2C1 = 51.26
• O=C1NCCCCC1NS(=O)(=O)N1CCCCCC1 (stereo not given) = -4.89

###

Tested on: Plasmodium berghei
Assay: Screen against P. berghei liver stage (PbLuc), transformed with Luciferase, at 2uM
Type: functional, HepG2
Conditions: tested at 2 uM
The campaign covered roughly 68,000 compounds. About 2,700 (4%) showed an effect of 50% or more. For the sample, strong results were picked, then their nearest neighbours and some compounds at random.
Let's look at some molecules and their measured INHIBITION.
experimental readout: INHIBITION (%)

- CCc1[nH]n(C)c(=N)c1-c1ccc2c(c1)OCO2: 37.53
- Cn1nc(C2CCCC2)c(-c2ccc3c(c2)OCO3)c1N: 53.33
- O=C1NCCCCC1NC(=O)N1CCCc2cc(F)ccc21 (stereo not drawn): -30.43
- CCOCC1CN(Cc2ccncc2)Cc2nn(C)cc21 (stereo not drawn): 7.26
- CN(c1ccc(C(=O)NCCN2CCOCC2)c(Cl)c1)S(C)(=O)=O: 2.31
- Cc1cc(C)n(C2CCCN(C(=O)CCNS(C)(=O)=O)C2)n1 (stereo not drawn): 15.31
- CCCc1[nH]n(C)c(=N)c1-c1ccc2c(c1)OCO2: 5.92
- CC(=O)N1Cc2ccccc2C[C@H]1C(=O)N(C)CCc1ccccn1: 8.73
- CN(CCc1ccccc1)Cc1c(C2CCNCC2)[nH]c2ncccc12: 2.56
- CCOc1ncccc1C(=O)N1CCCC(n2nc(C)nc2C)C1 (stereo not drawn): 20.44
- Cc1ccc(C(=O)NCCC2CCN(C)CC2)cc1N(C)S(C)(=O)=O: 36.05
- Cc1ccc(C(=O)NCCN2CCOCC2)cc1N(C)S(C)(=O)=O: 70.2
- Cc1ncsc1CN1C[C@@H]2CC[C@H]1CN(Cc1ccccc1)C2: 15.68
- CN(CCc1ccccn1)C(=O)C1Cc2ccccc2CN1C (stereo not drawn): 31.78
- O=C1NCCCCC1NC(=O)N1CCc2ccccc21 (stereo not drawn): 50.42
- CCOc1ncccc1C(=O)N1CCCC(n2nc(C)cc2C)C1 (stereo not drawn): 58.29
- Cn1[nH]c(C2CC2)c(-c2ccc3c(c2)OCO3)c1=N: 58.6
- COCCOc1ccccc1C(=O)N1CCCCC1c1nccs1 (stereo not drawn): 45.75

###

System: Plasmodium berghei
Test: Screen against P. berghei liver stage (PbLuc), transformed with Luciferase, at 2uM
Format: functional, HepG2
Conditions: tested at 2 uM
In all, about 68,000 compounds went through this assay and about 2,700 (4%) showed an effect of 50% or more. What follows is part of a selection rich in strong results, with near analogues and random picks from the rest.
The molecules listed here are annotated with their INHIBITION.
experimental readout: INHIBITION (%)

* CC(C)Oc1cc(N2CCC(N3CCC(O)CC3)CC2)nc(N)n1 | 2.39
* CCn1ncc2c1NC(=O)C(C#N)C21CCCC1 (stereo not drawn) | -12.09
* CC(C)Oc1cc(N2CC[C@H](CO)[C@@H](O)C2)nc(N)n1 | -1.63
* Cc1noc(C)c1S(=O)(=O)N1CCC(Oc2cccnn2)CC1 | -12.23
* Cc1cncc(C(=O)N2CCCC(O)(CN3CCCC3)C2)c1 (stereo not drawn) | -22.01
* Cc1cc(C)c(C(=O)N2CCCC(O)(CN3CCCC3)C2)cc1C (stereo not drawn) | 79.79
* O=C(NCC1(Sc2ccccc2)CC1)c1cc[nH]n1 | 32.51
* O=C(NCC1(Sc2ccccc2)CC1)c1ccc(=O)[nH]n1 | -5.26
* CSc1ccccc1NC(=O)C1CSc2ncc(C)c(=O)n2C1 (stereo not drawn) | -35.92
* CC(C)c1nnc2n1CCN(C(=O)c1ccc3c(c1)COC3)C2 | 57.75
* Cc1c(C(C)NC2CSCCSC2)cnn1-c1ccc(F)cc1F (stereo not drawn) | 81.59
* CN(Cc1cnccn1)CC1CCOc2ccccc2C1 (stereo not drawn) | 20.76
* COCc1cc(N2CCOC(c3ccc(Cl)c(Cl)c3)C2)ncn1 (stereo not drawn) | -16.62
* CNC(=O)C1(c2cnccn2)CCCN1C(=O)c1ccn(C)n1 (stereo not drawn) | 43.89
* Cc1noc(C)c1S(=O)(=O)N1CCC(Oc2ccccn2)CC1 | -11.22
* CCC(=O)Nc1cc(Cl)ccc1C(=O)N(C)Cc1noc(CC)n1 | 1.1
* Cc1ccc(S(=O)(=O)N2CCC(Oc3ccccn3)CC2)c(C)c1 | 56.24
* O=C1CC2(CCN(c3nncs3)C2)CN1c1cccc(F)c1 (stereo not drawn) | 21.75
* CC(C)c1nnc2n1CCN(C(=O)c1ccc(Cn3cccc3)cc1)C2 | 15.08
* CCOCC(=O)N1C[C@H]2CN(CC3CC3)C(=O)[C@H]2C1 | -3.65
* Cc1c(C(C)NC2CCN(C(C)C)CC2)cnn1-c1ccc(F)cc1F (stereo not drawn) | 14.82
* Cc1cc2c(o1)CC(C)(C)CC2NC(=O)CNC(=O)C1CC1 (stereo not drawn) | -22.24
* O=C(C1CC1)N1CCC2(CCN2Cc2ccc(F)cc2)C1 (stereo not drawn) | 31.52
* CC(=O)N1CCC2(CC1)CN(CC(C)C)CC21CCNC1=O (stereo not drawn) | 63.35
* CCCc1ccc(C(=O)N2CCn3c(nnc3C(C)C)C2)cc1 | 15.08
* Cc1cccc(NC(=O)c2cccc(OCc3nnnn3C)c2)n1 | -85.14
* CS(=O)(=O)N1CCC2(CCN(C(=O)c3cccs3)CC2)CC1 | 11.79
* COCC1CN(Cc2ccoc2)Cc2nn(C)cc21 (stereo not drawn) | 17.69
* Cc1ccc(CN2CCN(C(=O)c3ccc(Br)o3)CC2)cc1 | 45.77
* Cc1c(C(C)NCC2CCCC2)cnn1-c1ccc(F)cc1F (stereo not drawn) | 10.05
* Cn1nc2c(cc1=O)CN(Cc1nnc(-c3ccco3)o1)CC2 | -32.49
* CN(C)S(=O)(=O)N1CCC(Oc2cccnn2)CC1 | 20.38
* CN1CC(C(=O)NC2(c3ccc(Cl)cc3)CCOCC2)CC1=O (stereo not drawn) | 3
* CN(C)C(=O)N1CCC2(CC1)CN(CC1CC1)CC21CCNC1=O (stereo not drawn) | 35.89
* COCCN(C(=O)c1cc(C)no1)c1ccc(C#N)cc1 | -43.03
* CC(C)c1nnc2n1CCN(C(=O)c1ccc(CN(C)C)cc1)C2 | 50.72
* CN(C)S(=O)(=O)N1CCC(Oc2ccccn2)CC1 | -19.47
* CC(=O)N1CCC(NC(C)c2cnn(-c3ccc(F)cc3F)c2C)CC1 (stereo not drawn) | 79.21
* CN(Cc1ccc(F)cc1)CC1(O)CCN(C(=O)c2cccs2)C1 (stereo not drawn) | -27.04
* O=C1CC2(CCN(c3nncs3)C2)CN1c1ccc2c(c1)OCCO2 (stereo not drawn) | 58.16
* Cc1cc(C(=O)N2CCCC(O)(CN3CCCC3)C2)ccc1Cl (stereo not drawn) | 19.36
* CNC(=O)c1n[nH]c2c1C(c1cccc3c1OC(C)(C)C3)CC(=O)N2 (stereo not drawn) | 48.21
* COc1ccc(-n2ccc(CNCc3cccc(OC)c3)n2)cc1 | 28.75
